Every entry's value here was drawn from the Human Domainome abundance scans (Beltran et al. 2025).

B1: Transcription intermediary factor 1-beta, residues 620 to 671; numbered along this chain, Q13263 (parent)
chain: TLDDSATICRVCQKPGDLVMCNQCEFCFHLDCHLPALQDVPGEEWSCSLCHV

variants of: B1; assay: abundance fitness (aPCA) (normalised: wild type 0, dead -1); higher = more abundant; growth selection in yeast, the domain comes from the species named; conditions: Homo sapiens
READOUT NAME: abundance fitness
The response must contain the number and no unit.

MUTANT NAME: N22F
abundance fitness: -0.281

Sample "V40A" ; abundance fitness observed: -0.323

get_value(item= "V52I" , readout=abundance fitness) returns -0.354
